# method-notes: Bi-directional Caco-2 permeability
# Format: in vitro ADME
# conditions-used: human, Caco-2, basolateral to apical; read-out: BA Recovery %
readout: recovery at 90 min (%)
API: value field is a number in %; no unit string.

Short answer for CC(C)OC(=O)N[C@@H]1CCC(c2ncc(-c3ccc(NC(=O)NCc4ccccc4)cc3S(=O)(=O)NC(C)(C)C)s2)OC1 (mixture of isomers) : recovery at 90 min was 91.5

Short answer for CC(C)OC(=O)Nc1ccc(-c2cnc(C3CC[C@@H](NC(=O)OC(C)C)CO3)s2)c(S(=O)(=O)NC(C)(C)C)c1 (mixture of isomers) : recovery at 90 min was 90.8

Short answer for `CC(C)OC(=O)N[C@H]1CC[C@H](c2ncc(-c3ccc(NC(=O)NCc4ccncc4)cc3S(=O)(=O)NC(C)(C)C)s2)CC1` : recovery at 90 min was 89

====

# method-notes: Bi-directional Caco-2 permeability
# Assay type: in vitro ADME
# conditions-used: human, Caco-2; apical to basolateral, 37° C., up to 90 minutes; read-out: AB Papp (cm/sec × 10^6)
readout: Papp A→B at 90 min (×10⁻⁶ cm/s)
API: value field is a number in ×10⁻⁶ cm/s; no unit string.

Short answer for CC(C)OC(=O)NC1CCC(c2ncc(-c3ccc(NC(=O)OC[C@@H]4CCCN4C)cc3S(=O)(=O)NC(C)(C)C)s2)CC1 (stereo partly shown) [Ex. 35] : Papp A→B at 90 min was 0.4

Short answer for CC(C)OC(=O)NC1CCC(c2ncc(-c3ccc(NC(=O)NCc4ccccn4)cc3S(=O)(=O)NC(C)(C)C)s2)CC1 (stereo not shown) [Ex. 29] : Papp A→B at 90 min was 10.9

Short answer for CC(C)OC(=O)NC1CCC(c2ncc(-c3ccc(NC(=O)NCc4cccc(F)c4)cc3S(=O)(=O)NC(C)(C)C)s2)CC1 (stereo not shown) [Ex. 27] : Papp A→B at 90 min was 0.7

Short answer for CC(C)OC(=O)NC1CCC(c2ncc(-c3ccc(NC(=O)N[C@H](C)c4ccccn4)cc3S(=O)(=O)NC(C)(C)C)s2)CC1 (stereo partly shown) [Ex. 30] : Papp A→B at 90 min was 11.5

====

Would you kindly list recovery at 90 min for each of these molecules?
# method-notes: Bi-directional Caco-2 permeability
# Type: in vitro ADME
# conditions-used: human, Caco-2, apical to basolateral; read-out: AB Recovery %
API: value field is a number in %; no unit string.

Short answer for CC(C)OC(=O)N[C@@H]1CCC(c2ncc(-c3ccc(NC(=O)NCc4ccccc4)cc3S(=O)(=O)NC(C)(C)C)s2)OC1 (mixture of isomers) : recovery at 90 min was 61.5

Short answer for `CC(C)OC(=O)N[C@H]1CC[C@H](c2ncc(-c3ccc(NC(=O)NCc4ccncc4)cc3S(=O)(=O)NC(C)(C)C)s2)CC1` : recovery at 90 min was 83.1

Short answer for CC(C)OC(=O)Nc1ccc(-c2cnc(C3CC[C@@H](NC(=O)OC(C)C)CO3)s2)c(S(=O)(=O)NC(C)(C)C)c1 (mixture of isomers) : recovery at 90 min was 59.8

====

# Test system: Daudi cell line (AID positive)
# method-notes: Cell killing assay in the Daudi cell line (AID positive), Cell-Titer Glo
# Format: cell-based
# conditions-used: Homo sapiens, 168 h; Daudi cells (AID positive), cell death on Day 7
pEC50: −log10 of the molar value.
Would you kindly list pEC50 for each of these molecules?

Short answer for CC(C)OC(=O)Nc1ccc(-c2cnc(C3CCC(NC(=O)OC[C@@H]4CCCN4C)CC3)s2)c(S(=O)(=O)NC(C)(C)C)c1 (stereo partly drawn) [Ex. 9] : pEC50 was 6.00 to 7.00

Short answer for CC(C)OC(=O)NC1CCC(c2ncc(-c3ccc(NC(=O)OC[C@@H]4CCCN4C)cc3S(=O)(=O)NC(C)(C)C)s2)CC1 (stereo partly drawn) [Ex. 35] : pEC50 was 6.00 to 7.00

Short answer for CC(C)OC(=O)NC1CCC(c2ncc(-c3ccc(NC(=O)OC[C@H]4CCCN4C)cc3S(=O)(=O)NC(C)(C)C)s2)CC1 (stereo partly drawn) [Ex. 34] : pEC50 was 6.00 to 7.00

====

Would you kindly list % QH (percentage of hepatic blood flow) for each of these molecules?
# method-notes: Human liver microsome stability
# Type: in vitro ADME
# conditions-used: human liver microsomes
API: value field is a number in %; no unit string.

Short answer for CC(C)OC(=O)N[C@H]1CC[C@H](c2ncc(-c3ccc(NC(=O)NCc4ccccc4)cc3S(=O)(=O)NC(C)(C)C)s2)CC1 [Ex. 66A] : % QH (percentage of hepatic blood flow) was 49.6

Short answer for CC(C)OC(=O)NC1CCC(c2ncc(-c3ccc(NC(=O)NCc4ncccc4F)cc3S(=O)(=O)NC(C)(C)C)s2)CC1 (stereo not shown) : % QH (percentage of hepatic blood flow) was 77.3

Short answer for CC(C)OC(=O)NC1CCC(c2ncc(-c3ccc(NC(=O)NCc4ccccn4)cc3S(=O)(=O)NC(C)(C)C)s2)CC1 (stereo not shown) : % QH (percentage of hepatic blood flow) was 78.8

====

# method-notes: Pharmacokinetic (PK) study, plasma by LC-MS
# Format: in vivo, rat
# conditions-used: Rat Female, po @ 80 mg/kg
# Method: PK studies in mice were used to determine the fate of the compounds in a whole organism. Rats were treated with the compounds either orally of via IV at the indicated doses and followed for up to 24 hours. Plasma samples were taken at different time points and analyzed by LC-MS.
readout: F (%) @ 5 mg/kg
API: value field is a number in %; no unit string.

Short answer for CC(C)OC(=O)N[C@H]1CC[C@H](c2ncc(-c3ccc(NC(=O)NCc4ccccc4)cc3S(=O)(=O)NC(C)(C)C)s2)CC1 [Ex. 66A] : F (%) @ 5 mg/kg was 3.31

Short answer for CC(C)OC(=O)NC1CCC(c2ncc(-c3ccc(NC(=O)NCc4ccccn4)cc3S(=O)(=O)NC(C)(C)C)s2)CC1 (stereo not shown) : F (%) @ 5 mg/kg was 8.39

Short answer for CC(C)OC(=O)Nc1ccc(-c2cnc([C@H]3CC[C@H](NC(=O)OC(C)C)CC3)s2)c(S(=O)(=O)NC(C)(C)C)c1 [Ex. 67A] : F (%) @ 5 mg/kg was 86.5

Short answer for CC(C)OC(=O)NC1CCC(c2ncc(-c3ccc(NC(=O)NCc4ncccc4F)cc3S(=O)(=O)NC(C)(C)C)s2)CC1 (stereo not shown) : F (%) @ 5 mg/kg was 2.77

====

# method-notes: Bi-directional Caco-2 permeability
# Type: in vitro ADME
# conditions-used: human, Caco-2; basolateral to apical, 37° C., up to 90 minutes; read-out: BA Papp (cm/sec × 10^6)
Checkbox rule: Papp B→A at 90 min lower than 20 ×10⁻⁶ cm/s = rule met; Papp B→A at 90 min not lower than 20 ×10⁻⁶ cm/s = rule not met.

Just wondering, is Papp B→A at 90 min of CC(C)OC(=O)N[C@@H]1CCC(c2ncc(-c3ccc(NC(=O)NCc4ccccc4)cc3S(=O)(=O)NC(C)(C)C)s2)OC1 (mixture of isomers) below 20 ×10⁻⁶ cm/s?
rule met

Just wondering, is Papp B→A at 90 min of CC(C)OC(=O)NC1CCC(c2ncc(-c3ccc(NC(=O)NCc4ncccc4F)cc3S(=O)(=O)NC(C)(C)C)s2)CC1 (stereo not shown) below 20 ×10⁻⁶ cm/s?
rule met

Just wondering, is Papp B→A at 90 min of CC(C)OC(=O)NC1CCC(c2ncc(-c3ccc(NC(=O)N[C@H](C)c4ccccn4)cc3S(=O)(=O)NC(C)(C)C)s2)CC1 (stereo partly shown) below 20 ×10⁻⁶ cm/s?
rule met

Just wondering, is Papp B→A at 90 min of CC(C)OC(=O)NC1CCC(c2ncc(-c3ccc(NC(=O)NCc4ccccn4)cc3S(=O)(=O)NC(C)(C)C)s2)CC1 (stereo not shown) below 20 ×10⁻⁶ cm/s?
rule not met

Just wondering, is Papp B→A at 90 min of CC(C)OC(=O)NC1CCC(c2ncc(-c3ccc(NC(=O)OC[C@H]4CCCN4C)cc3S(=O)(=O)NC(C)(C)C)s2)CC1 (stereo partly shown) below 20 ×10⁻⁶ cm/s?
rule not met

Just wondering, is Papp B→A at 90 min of CC(C)NC(=O)OC1CCC(c2ncc(-c3ccc(NC(=O)NCc4ccccc4)cc3S(=O)(=O)NC(C)(C)C)s2)CC1 (stereo not shown) below 20 ×10⁻⁶ cm/s?
rule met

Just wondering, is Papp B→A at 90 min of CC(C)OC(=O)NC1CCC(c2ncc(-c3ccc(NC(=O)OC[C@@H]4CCCN4C)cc3S(=O)(=O)NC(C)(C)C)s2)CC1 (stereo partly shown) below 20 ×10⁻⁶ cm/s?
rule not met

====

# method-notes: Bi-directional Caco-2 permeability
# Type: in vitro ADME
# conditions-used: human, Caco-2; basolateral to apical, 37° C., up to 90 minutes; read-out: BA Papp (cm/sec × 10^6)
readout: Papp B→A at 90 min (×10⁻⁶ cm/s)
API: value field is a number in ×10⁻⁶ cm/s; no unit string.

Short answer for CC(C)OC(=O)N[C@@H]1CCC(c2ncc(-c3ccc(NC(=O)NCc4ccccc4)cc3S(=O)(=O)NC(C)(C)C)s2)NC1 (some centres unmarked) [Ex. 64] : Papp B→A at 90 min was 27.4

Short answer for CC(C)OC(=O)N[C@H]1CC[C@H](c2ncc(-c3ccc(NC(=O)NCc4ccncc4)cc3S(=O)(=O)NC(C)(C)C)s2)CC1 [Ex. 22] : Papp B→A at 90 min was 21

Short answer for CC(C)OC(=O)NC1CCC(c2ncc(-c3ccc(NC(=O)NCc4cccc(F)c4)cc3S(=O)(=O)NC(C)(C)C)s2)CC1 (centres unmarked) [Ex. 27] : Papp B→A at 90 min was 0.5

Short answer for CC(C)OC(=O)NC1CCC(c2ncc(-c3ccc(NC(=O)NCc4ccccc4F)cc3S(=O)(=O)NC(C)(C)C)s2)CC1 (centres unmarked) [Ex. 28] : Papp B→A at 90 min was 3.3

Short answer for CC(C)OC(=O)Nc1ccc(-c2cnc(C3CC[C@@H](NC(=O)OC(C)C)CO3)s2)c(S(=O)(=O)NC(C)(C)C)c1 (mixture of isomers) [Ex. 60] : Papp B→A at 90 min was 13.3
